Molecular target: human cloned CHRM4 receptor (Homo sapiens)
Construct: expressed in transfected cells; host or cells: CHO-K1 (M4_CHO)
Sequence (P08173 1-479): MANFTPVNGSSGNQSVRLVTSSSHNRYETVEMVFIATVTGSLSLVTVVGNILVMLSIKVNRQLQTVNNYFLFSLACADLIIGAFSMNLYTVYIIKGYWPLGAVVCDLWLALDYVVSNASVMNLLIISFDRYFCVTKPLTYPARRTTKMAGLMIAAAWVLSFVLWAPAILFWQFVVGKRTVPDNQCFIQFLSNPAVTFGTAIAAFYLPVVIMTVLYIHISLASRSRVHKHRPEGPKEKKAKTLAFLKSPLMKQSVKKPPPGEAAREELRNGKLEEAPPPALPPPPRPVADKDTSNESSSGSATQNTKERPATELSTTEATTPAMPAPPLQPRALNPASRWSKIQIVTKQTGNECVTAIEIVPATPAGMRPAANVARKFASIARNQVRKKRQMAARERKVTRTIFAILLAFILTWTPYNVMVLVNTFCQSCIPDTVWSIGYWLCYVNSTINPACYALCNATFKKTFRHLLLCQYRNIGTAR
Test: CHRM4 Ca++ Flux Assay (M4_CHO cells, agonist mode)
Format: cell-based
Conditions: Percent Activity (PA), read-out: M4 FDSS PA %
Source text: The above examples were characterized by measuring the intracellular mobilization of Ca^++ ions caused by signaling events mediated by the receptor. […]
readoutKind: Emax (%)

Would you please look over these solved cases?
According to the records, this compound `c1ccc(C2CCN([C@@H]3COC4(C3)CN(c3ncco3)C4)CC2)c(OC2COC2)c1` displays Emax of 80

The reported Emax of the compound `c1ccc(C2CCN([C@@H]3COC4(C3)CN(c3nnco3)C4)CC2)c(CC2CCOCC2)c1` was 82

Looking up `Fc1ccc(O[C@@H]2CCOC2)c(C2CCN([C@@H]3COC4(C3)CN(c3nncs3)C4)CC2)c1` , I see its Emax listed as 99

// sample `CC(C)(O)COc1ccc(F)cc1C1CCN([C@@H]2COC3(C2)CN(c2nnco2)C3)CC1` , its Emax was 73

Consider `Fc1ccc(O[C@H]2CCOC2)c(C2CCN([C@@H]3COC4(C3)CN(c3nncs3)C4)CC2)c1` . Its measured Emax is 74

[A] Fc1ccc(OC[C@H]2CCOC2)c(C2CCN([C@@H]3COC4(C3)CN(c3nnco3)C4)CC2)c1
[B] Fc1cc(F)c(OC2CC3(COC3)C2)c(C2CCN([C@@H]3COC4(C3)CN(c3nnco3)C4)CC2)c1
Between A and B , which one shows the smaller Emax number? Response format: the label of the selected entry.
B

* * *

Biological target: human cloned CHRM3 receptor (Homo sapiens, UniProt P20309)
Construct: expressed in transfected cells; host or cells: CHO-K1 (M3_CHO)
Sequence (P20309 whole entry): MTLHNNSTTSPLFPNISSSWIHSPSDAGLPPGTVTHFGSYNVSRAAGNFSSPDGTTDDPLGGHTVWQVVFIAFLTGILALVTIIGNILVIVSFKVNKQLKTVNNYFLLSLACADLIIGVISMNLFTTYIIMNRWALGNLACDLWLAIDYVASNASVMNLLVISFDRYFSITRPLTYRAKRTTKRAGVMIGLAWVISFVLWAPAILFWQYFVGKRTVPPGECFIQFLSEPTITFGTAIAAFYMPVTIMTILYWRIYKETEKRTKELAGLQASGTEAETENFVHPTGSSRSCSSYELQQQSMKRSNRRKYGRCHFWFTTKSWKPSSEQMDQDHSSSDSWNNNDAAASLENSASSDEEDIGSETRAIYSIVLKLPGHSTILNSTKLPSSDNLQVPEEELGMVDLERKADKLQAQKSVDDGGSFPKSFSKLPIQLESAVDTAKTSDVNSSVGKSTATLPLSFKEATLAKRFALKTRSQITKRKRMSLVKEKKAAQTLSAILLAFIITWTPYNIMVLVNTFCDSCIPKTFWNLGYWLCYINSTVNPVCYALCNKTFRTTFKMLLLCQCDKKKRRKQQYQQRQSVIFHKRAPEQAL
Assay: CHRM3 Ca++ Flux Assay (M3_CHO cells, agonist mode)
Format: cell-based
Conditions: Percent Activity (PA) measured to EC100 of Carbachol, read-out: M3 FDSS PA %
readoutKind: Emax (%)

GET /value?item= `Fc1ccc(OC2CC3(COC3)C2)c(C2CCN([C@H]3COC4(C3)CN(c3nnco3)C4)CC2)c1` &field=Emax returns 0

compound `c1ccc(C2CCN([C@@H]3COC4(C3)CN(c3nnco3)C4)CC2)c(-c2ncco2)c1` , Emax observed: 0

Item: `c1ccc(C2CCN([C@@H]3COC4(C3)CN(c3ncco3)C4)CC2)c(O[C@H]2CCOC2)c1` | Emax: 0

Field Emax (entry `COCCOc1ccc(F)cc1C1CCN([C@@H]2COC3(C2)CN(c2ncco2)C3)CC1` ) reads 0

// field: Emax; key: `Fc1ccc(O[C@@H]2CCOC2)c(C2CCN([C@@H]3COC4(C3)CN(c3nnco3)C4)CC2)c1` ; value = 0

// field: Emax; key: `COC(C)(C)CCOc1ccc(F)cc1C1CCN([C@@H]2COC3(C2)CN(c2nncs2)C3)CC1` ; value = 0

Measured Emax of `Fc1cc(OCC2COC2)c(C2CCN([C@@H]3COC4(C3)CN(c3ncco3)C4)CC2)cc1F` : 0

Recorded Emax (compound `COc1cc(F)ccc1C1CCN([C@@H]2COC3(C2)CN(c2nnco2)C3)CC1` ): 0

Value of Emax reported for the compound `Cc1nnc(COc2ccc(F)cc2C2CCN([C@@H]3COC4(C3)CN(c3nnco3)C4)CC2)o1` is 0

Note to self: Emax recorded for `Fc1ccc(OC2CCOCC2)c(C2CCN([C@@H]3COC4(C3)CN(c3nncs3)C4)CC2)c1` was 0

For this compound ( `Cc1nnc(COc2ccc(F)cc2C2CCN([C@@H]3COC4(C3)CN(c3nnco3)C4)CC2)s1` ), measured Emax is 0

Measured Emax of `COc1ccccc1C1CCN([C@@H]2COC3(C2)CN(c2nncs2)C3)CC1` : 0

The value of Emax measured for the compound `Fc1ccc(OC[C@H]2CCCO2)c(C2CCN([C@@H]3COC4(C3)CN(c3nnco3)C4)CC2)c1` turned out to be 0

Emax measured on `c1ccc(C2CCN([C@@H]3COC4(C3)CN(c3ncco3)C4)CC2)c(C2CCOCC2)c1` = 0

Entry under test: `Fc1ccc(OC2CC3(COC3)C2)c(C2CCN([C@@H]3COC4(C3)CN(c3nncs3)C4)CC2)c1` . Its Emax was 0

The recorded Emax for `Cc1nnc(-c2ccccc2C2CCN([C@@H]3COC4(C3)CN(c3nnco3)C4)CC2)o1` is 0

Lab note: measured Emax of `Fc1ccc(OCc2ncccn2)c(C2CCN([C@@H]3COC4(C3)CN(c3nnco3)C4)CC2)c1` was 0

For `Fc1cc(OC2COC2)c(C2CCN([C@@H]3COC4(C3)CN(c3nnco3)C4)CC2)cc1F` the compound record lists Emax as 0

Summary for this compound, `Fc1ccc(OCC2COC2)c(C2CCN([C@@H]3COC4(C3)CN(c3nncs3)C4)CC2)c1` : Emax is 0

The reported value for `COc1cc(F)ccc1C1CCN([C@@H]2COC3(C2)CN(c2nncs2)C3)CC1` in terms of Emax is 0

According to the records, this compound `Fc1ccc(C2CCOCC2)c(C2CCN([C@@H]3COC4(C3)CN(c3nnco3)C4)CC2)c1` displays Emax of 0

The compound identified as `Fc1ccc(O[C@H]2CCOC2)c(C2CCN([C@@H]3COC4(C3)CN(c3nncs3)C4)CC2)c1` registered its Emax at 0

The reported Emax of the compound `Fc1ccc(OC2CC3(COC3)C2)c(C2CCN([C@@H]3COC4(C3)CN(c3ncco3)C4)CC2)c1` was 0

Form field Emax, entry `c1ccc(C2CCN([C@@H]3COC4(C3)CN(c3ncco3)C4)CC2)c(O[C@@H]2CCOC2)c1` : 0

Form field Emax, entry `c1ccc(C2CCN([C@@H]3COC4(C3)CN(c3nnco3)C4)CC2)c(-c2cncnc2)c1` : 0

So for `CCc1nnc(COc2ccc(F)cc2C2CCN([C@@H]3COC4(C3)CN(c3nnco3)C4)CC2)s1` , the logged Emax turned out to be 0

// sample `COC(C)(C)CCOc1ccc(F)cc1C1CCN([C@@H]2COC3(C2)CN(c2nnco2)C3)CC1` , its Emax was 0

Emax reading for `COc1ccc(Cl)cc1C1CCN([C@@H]2COC3(C2)CN(c2ncns2)C3)CC1` : 0

In plain terms, `Fc1ccc(OC[C@H]2COCCO2)c(C2CCN([C@@H]3COC4(C3)CN(c3nnco3)C4)CC2)c1` has a documented Emax of 0

Lab book: Emax of `COc1ccc(F)cc1C1CCN([C@@H]2COC3(C2)CN(c2ncco2)C3)CC1` noted as 0

Entry under test: `c1ccc(C2CCN([C@@H]3COC4(C3)CN(c3ncco3)C4)CC2)c(OC2CC3(COC3)C2)c1` . Its Emax was 0

* * *

Target: human cloned CHRM3 receptor (Homo sapiens, UniProt P20309)
Construct: expressed in transfected cells; host or cells: CHO-K1 (M3_CHO)
Experiment: CHRM3 Ca++ Flux Assay (M3_CHO cells, agonist mode)
Type: cell-based
Settings: Percent Activity (PA) measured to EC100 of Carbachol
readoutKind: M3 FDSS PA % (%)

// M3 FDSS PA % lookup, molecule = Fc1ccc(O[C@H]2CCCOC2)c(C2CCN([C@@H]3COC4(C3)CN(c3nnco3)C4)CC2)c1 (single isomer, unassigned) [Example 2Q] , result: 0

Recorded result, CC(C)(O)[C@H]1C[C@H](Oc2ccc(F)cc2C2CCN([C@@H]3COC4(C3)CN(c3nnco3)C4)CC2)C1 (single isomer, unassigned) [Example 2V] , M3 FDSS PA %: 0

The measured M3 FDSS PA % associated with Fc1ccc(OC[C@H]2CCO2)c(C2CCN([C@@H]3COC4(C3)CN(c3nncs3)C4)CC2)c1.O=C(O)C(F)(F)F (single isomer, unassigned) [Example 2D] reads 0

* * *

Target: human cloned CHRM4 receptor (Homo sapiens)
Assay: CHRM4 Ca++ Flux Assay (M4_CHO cells, agonist mode)
Conditions: geometric mean if tested more than once, read-out: M4 FDSS EC50
Description: The above examples were characterized by measuring the intracellular mobilization of Ca^++ ions caused by signaling events mediated by the receptor. […]
pEC50: −log10 of the molar value.
readoutKind: pEC50

So, OC[C@H]1C[C@H](Oc2ccc(F)cc2C2CCN([C@@H]3COC4(C3)CN(c3nnco3)C4)CC2)C1 (single isomer, unassigned) [Example 2HH] ? Its pEC50 was 6.91

The molecule identified as Fc1ccc(OCC2CCOCC2)c(C2CCN([C@@H]3COC4(C3)CN(c3nnco3)C4)CC2)c1 [Example 1J] registered its pEC50 at 7.07

Lookup result for CC(C)(O)COc1ccc(F)cc1C1CCN([C@@H]2COC3(C2)CN(c2nncs2)C3)CC1 [Example 5U] ; measured pEC50: 6.62

Record summary for Fc1ccc(OC2CCOCC2)c(C2CCN([C@@H]3COC4(C3)CN(c3ncco3)C4)CC2)c1 [Example 4E] : reported pEC50 = 7.92

So for c1ccc(C2CCN([C@@H]3COC4(C3)CN(c3nnco3)C4)CC2)c(OC2COC2)c1 [Example 1P] , the logged pEC50 turned out to be 7.55

[1] c1ccc(C2CCN([C@@H]3COC4(C3)CN(c3nnco3)C4)CC2)c(C2CCOCC2)c1 [Example 3C]
[2] Fc1ccc(OC[C@@H]2CCOC2)c(C2CCN([C@@H]3COC4(C3)CN(c3nncs3)C4)CC2)c1 [Example 5I]
Field: lower recorded pEC50 (choose 1 or 2 ) Let me know the label of the one you choose.
1
(1: 6.74, 2: 7.70)
